Known MIC of a selection of compounds
- System: Acinetobacter baumannii
- Method Summary: Antimicrobial activity against Acinetobacter baumannii […] by Etest method
- Assay type: functional

Take a look at these entries with their results.
Compound	MIC
CC(C)(O/N=C(\C(=O)N[C@@H]1C(=O)N2C(C(=O)[O-])=C(C[n+]3ccccc3)CS[C@H]12)c1csc(N)n1)C(=O)O	256 µg/mL
CC1(C)S[C@@H]2[C@H](NC(=O)[C@H](N)c3ccc(O)cc3)C(=O)N2[C@H]1C(=O)O	> 256 µg/mL
CCN1CCN(C(=O)N[C@@H](C(=O)N[C@@H]2C(=O)N3[C@@H]2SC(C)(C)[C@@H]3C(=O)O)c2ccccc2)C(=O)C1=O	> 256 µg/mL

Which MIC is listed for CO/N=C(\C(=O)N[C@@H]1C(=O)N2C(C(=O)[O-])=C(C[N+]3(C)CCCC3)CS[C@H]12)c1csc(N)n1 [CEFEPIME] ? 4 µg/mL

Which MIC is listed for `C[C@@H](O)[C@H]1C(=O)N2C(C(=O)O)=C(S[C@@H]3CN[C@H](C(=O)N(C)C)C3)[C@H](C)[C@H]12` ? > 32 µg/mL

Which MIC is listed for C[C@@H](O)[C@H]1C(=O)N2C(C(=O)O)=C(SCCNC=N)C[C@H]12 [IMIPENEM ANHYDROUS] ? > 32 µg/mL

Which MIC is listed for `CC1(C)S[C@@H]2[C@H](NC(=O)[C@H](C(=O)O)c3ccsc3)C(=O)N2[C@H]1C(=O)O` ? > 256 µg/mL

Which MIC is listed for `CO/N=C(\C(=O)N[C@@H]1C(=O)N2C(C(=O)O)=C(COC(C)=O)CS[C@H]12)c1csc(N)n1` ? > 256 µg/mL
